conditions: in propylene glycol, 303.15 K
readout name: solubility (mole fraction)

> print(dat)
                         compound.structure  reported
1  Cc1cnc(NC(=O)C2=C(O)c3ccccc3S(=O)(=O)N2C)s1   5.6e-05

---

conditions: in ethanol, 308.15 K
readout name: solubility (mole fraction)

> print(dat)
                         compound.structure  reported
1  Cc1cnc(NC(=O)C2=C(O)c3ccccc3S(=O)(=O)N2C)s1   5.3e-05

---

conditions: in ethylene glycol, 288.15 K
readout name: solubility (mole fraction)

> print(dat)
                         compound.structure  reported
1  Cc1cnc(NC(=O)C2=C(O)c3ccccc3S(=O)(=O)N2C)s1  2.53e-05

---

conditions: in propylene glycol, 288.15 K
readout name: solubility (mole fraction)

> print(dat)
                         compound.structure  reported
1  Cc1cnc(NC(=O)C2=C(O)c3ccccc3S(=O)(=O)N2C)s1  4.49e-05

---

conditions: in water, 303.15 K
readout name: solubility (mole fraction)

> print(dat)
                         compound.structure  reported
1  Cc1cnc(NC(=O)C2=C(O)c3ccccc3S(=O)(=O)N2C)s1     9e-07

---

conditions: in ethylene glycol, 308.15 K
readout name: solubility (mole fraction)

> print(dat)
                         compound.structure                readout.name  reported
1  Cc1cnc(NC(=O)C2=C(O)c3ccccc3S(=O)(=O)N2C)s1  solubility (mole fraction)  3.06e-05

Measured values drawn from BigSolDB 2.1 for this set.
